Reference for the values: patent US12643858B2

# key: entry, value: pIC50
- target entity: HSD17B13 enzyme (Homo sapiens, UniProt Q7Z5P4)
- Construct: His; made in house; host or cells: E. coli
- Sequence (Q7Z5P4 20-300): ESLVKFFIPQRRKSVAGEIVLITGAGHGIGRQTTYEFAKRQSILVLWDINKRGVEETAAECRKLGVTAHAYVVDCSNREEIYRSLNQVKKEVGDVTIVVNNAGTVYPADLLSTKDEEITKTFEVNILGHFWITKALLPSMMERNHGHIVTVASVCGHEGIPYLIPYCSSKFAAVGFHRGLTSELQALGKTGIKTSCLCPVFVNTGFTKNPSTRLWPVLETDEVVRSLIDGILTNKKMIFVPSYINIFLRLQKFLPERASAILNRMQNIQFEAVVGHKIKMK
- assay overview: NADH detection assay (fluorescence based LTB3 assay) for HSD17B13 activity
- Format: biochemical
- experimental parameters: substrate 25 μM LTB3, 3 mM NAD+, 125 nM HSD17B13 enzyme, 1 hour at 26.5° C.
pIC50: −log10 of the molar value.

[[record]]
given_smiles = "Oc1cc(Oc2cccc(-c3ccc(OC(F)(F)F)c(Cl)c3)n2)ccc1F"
value_reported = "≥ 5.30"

[[record]]
given_smiles = "COc1ccc(-c2cccc(Oc3ccc(F)c(O)c3)n2)cc1"
value_reported = "4.52 to 5.00"

[[record]]
given_smiles = "Oc1cc(Sc2cccc(-c3cccc(O)c3F)n2)ccc1F"
value_reported = "≥ 5.30"

[[record]]
given_smiles = "COc1cccc(-c2cccc(Oc3ccc(O)nc3)n2)c1F"
value_reported = "< 4.52"

[[record]]
given_smiles = "COc1cccc(-c2cccc(Oc3cccc(CNS(C)(=O)=O)c3)n2)c1F"
value_reported = "< 4.52"


Input: Look at this molecule and give its reported pIC50. "CNC(=O)c1cc(Oc2ccc(F)c(O)c2)nc(-c2cccc(O)c2F)c1"
Output: 4.52 to 5.00

Input: Look at this molecule and give its reported pIC50. "O=S(=O)(Nc1ccccc1)c1cccc(-c2cccc(Oc3ccc(F)c(O)c3)n2)c1"
Output: ≥ 5.30

Input: Look at this molecule and give its reported pIC50. "O=S(=O)(c1cccc(-c2cccc(Oc3ccc(F)c(O)c3)n2)c1)N1CCNCC1"
Output: < 4.52

Input: Look at this molecule and give its reported pIC50. "O=S(=O)(c1ccc(F)c(O)c1)c1cccc(-c2cccc(O)c2F)n1"
Output: 5.00 to 5.30

Input: Look at this molecule and give its reported pIC50. "COc1cc(Oc2cccc(-c3ccc4c(c3)NS(=O)(=O)C4)n2)ccc1F"
Output: < 4.52

Input: Look at this molecule and give its reported pIC50. "CN1C(=O)COc2cc(-c3cccc(Oc4ccc(F)c(O)c4)n3)ccc21"
Output: ≥ 5.30

Input: Look at this molecule and give its reported pIC50. "CC(=O)Nc1cc(Oc2cccc(-c3cccc(O)c3F)n2)ccc1F"
Output: < 4.52

Input: Look at this molecule and give its reported pIC50. "O=C1COc2cc(-c3cccc(Oc4ccc(F)c(O)c4)n3)ccc2N1"
Output: < 4.52

Input: Look at this molecule and give its reported pIC50. "O=c1ccc(Oc2cccc(-c3cccc(O)c3F)n2)cn1C(F)F"
Output: < 4.52

###

# key: entry, value: IC50
- target entity: HSD17B13 enzyme (Homo sapiens)
- Construct: His; made in house; host or cells: E. coli
- assay overview: NADH detection assay (fluorescence based LTB3 assay) for HSD17B13 activity
- Assay type: biochemical
- experimental parameters: substrate 25 μM LTB3, 3 mM NAD+, 125 nM HSD17B13 enzyme, 1 hour at 26.5° C.

[[record]]
given_smiles = "N#Cc1cc(Oc2ccc(F)c(O)c2)nc(-c2cccc(O)c2F)c1"
target_entity = "HSD17B13 enzyme (Homo sapiens)"
measurement_label = "IC50"
value_reported = "≤ 5 µM"

[[record]]
given_smiles = "Oc1cc(Oc2cccc(-c3c(F)cccc3F)n2)ccc1F"
target_entity = "HSD17B13 enzyme (Homo sapiens)"
measurement_label = "IC50"
value_reported = "5 to 10 µM"

[[record]]
given_smiles = "N#Cc1ccc(-c2cccc(Oc3ccc(F)c(O)c3)n2)c(F)c1"
target_entity = "HSD17B13 enzyme (Homo sapiens)"
measurement_label = "IC50"
value_reported = "> 30 µM"

[[record]]
given_smiles = "O=S(=O)(Nc1cccc(-c2cccc(Oc3ccc(F)c(O)c3)n2)c1)c1ccccc1"
target_entity = "HSD17B13 enzyme (Homo sapiens)"
measurement_label = "IC50"
value_reported = "≤ 5 µM"


Input: Look at this compound and give its reported IC50. "COc1cccc(-c2cccc(Oc3ccc(F)c(NC(C)=O)c3)n2)c1F"
Output: > 30 µM

###

- target entity: HSD17B13 enzyme (Homo sapiens)
- Construct: His; made in house; host or cells: E. coli
- assay overview: NADH detection assay (fluorescence based LTB3 assay) for HSD17B13 activity
- Format: biochemical
- experimental parameters: substrate 25 μM LTB3, 3 mM NAD+, 125 nM HSD17B13 enzyme, 1 hour at 26.5° C.
# key: entry, value: IC50

[[record]]
given_smiles = "Oc1cc(Oc2cccc(-c3ccc4c(c3)OCO4)n2)ccc1F"
measurement_label = "IC50"
value_reported = "≤ 5 µM"

[[record]]
given_smiles = "COc1cccc(-c2cccc(Oc3ccc(=O)n(C(F)F)c3)n2)c1F"
measurement_label = "IC50"
value_reported = "> 30 µM"

[[record]]
given_smiles = "Oc1cc(Oc2cccc(-c3ccccc3F)n2)ccc1F"
measurement_label = "IC50"
value_reported = "≤ 5 µM"

[[record]]
given_smiles = "CN(c1ccc(F)c(O)c1)c1cccc(-c2cccc(O)c2F)c1C#N"
measurement_label = "IC50"
value_reported = "> 30 µM"

[[record]]
given_smiles = "Oc1cc(Oc2cccc(-c3ccc(O)c(OCc4ccccc4)c3)n2)ccc1F"
measurement_label = "IC50"
value_reported = "≤ 5 µM"


Input: Look at this compound and give its reported IC50. "O=c1[nH]c2ccc(Oc3cccc(-c4cccc(O)c4F)n3)cc2[nH]1"
Output: 5 to 10 µM

Input: Look at this compound and give its reported IC50. "CS(=O)(=O)c1cccc(-c2cccc(Oc3ccc(F)c(O)c3)n2)c1"
Output: > 30 µM

Input: Look at this compound and give its reported IC50. "CNc1cccc(-c2cccc(Oc3ccc(F)c(O)c3)n2)c1"
Output: ≤ 5 µM

###

- target entity: HSD17B13 enzyme (Homo sapiens, UniProt Q7Z5P4)
- Construct: His; made in house; host or cells: E. coli
- Sequence (Q7Z5P4 20-300): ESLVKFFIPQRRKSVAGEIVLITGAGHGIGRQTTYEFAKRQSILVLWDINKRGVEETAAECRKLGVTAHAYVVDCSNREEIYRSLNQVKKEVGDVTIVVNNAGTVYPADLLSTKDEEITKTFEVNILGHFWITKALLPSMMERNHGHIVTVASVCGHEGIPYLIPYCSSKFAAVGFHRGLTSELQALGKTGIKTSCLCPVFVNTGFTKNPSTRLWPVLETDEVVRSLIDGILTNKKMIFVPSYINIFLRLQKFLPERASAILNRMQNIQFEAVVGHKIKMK
- assay overview: NADH detection assay (fluorescence based LTB3 assay) for HSD17B13 activity
- Type: biochemical
- experimental parameters: substrate 25 μM LTB3, 3 mM NAD+, 125 nM HSD17B13 enzyme, 1 hour at 26.5° C.
measurement label: IC50

These recorded examples may help you get a feel for the data.
[[record]]
given_smiles = "N#Cc1ccc(Oc2ccc(F)c(O)c2)nc1N1CCOCC1"
value_reported = "> 30 µM"

[[record]]
given_smiles = "COc1cccc(-c2cccc(Oc3ccc(F)c(C(F)F)c3)n2)c1F"
value_reported = "> 30 µM"

[[record]]
given_smiles = "CNC(=O)c1ccc(-c2cccc(Oc3ccc(F)c(O)c3)n2)cc1"
value_reported = "≤ 5 µM"

[[record]]
given_smiles = "Oc1cccc(-c2cccc(Oc3ccc(F)c(C(F)F)c3)n2)c1F"
value_reported = "5 to 10 µM"

[[record]]
given_smiles = "CC(=O)Nc1cccc(-c2cccc(Oc3ccc(F)c(O)c3)n2)c1"
value_reported = "≤ 5 µM"


Input: Look at this compound and give its reported IC50. "O=S(=O)(c1cccc(-c2cccc(Oc3ccc(F)c(O)c3)n2)c1)N1CCOCC1"
Output: ≤ 5 µM

Input: Look at this compound and give its reported IC50. "Oc1cc(Oc2cccc(-c3ccc(Cl)cc3)n2)ccc1F"
Output: ≤ 5 µM

Input: Look at this compound and give its reported IC50. "COc1ccc(-c2cccc(Oc3ccc(F)c(O)c3)n2)c(F)c1"
Output: ≤ 5 µM

Input: Look at this compound and give its reported IC50. "Oc1cc(Oc2cccc(-c3ccc(C(F)(F)F)c(Cl)c3)n2)ccc1F"
Output: 10 to 30 µM

###

# key: entry, value: pIC50
- target entity: HSD17B13 enzyme (Homo sapiens, UniProt Q7Z5P4)
- Construct: His; made in house; host or cells: E. coli
- assay overview: NADH detection assay (fluorescence based LTB3 assay) for HSD17B13 activity
- Type: biochemical
- experimental parameters: substrate 25 μM LTB3, 3 mM NAD+, 125 nM HSD17B13 enzyme, 1 hour at 26.5° C.
pIC50: −log10 of the molar value.

These recorded examples may help you get a feel for the data.
[[record]]
given_smiles = "Oc1cc(Oc2cccc(-c3cc(F)ccc3F)n2)ccc1F"
measurement_label = "pIC50"
value_reported = "≥ 5.30"

[[record]]
given_smiles = "O=C(NC1CC1)c1cccc(-c2cccc(Oc3ccc(F)c(O)c3)n2)c1"
measurement_label = "pIC50"
value_reported = "4.52 to 5.00"

[[record]]
given_smiles = "COc1cccc(-c2cccc(Oc3ccc4c(c3)NC(=O)C4)n2)c1F"
measurement_label = "pIC50"
value_reported = "< 4.52"


Input: Look at this compound and give its reported pIC50. "Oc1ccc(Oc2cccc(-c3cccc(O)c3F)n2)cc1F"
Output: ≥ 5.30

Input: Look at this compound and give its reported pIC50. "COc1cccc(F)c1-c1cccc(Oc2ccc(F)c(O)c2)n1"
Output: < 4.52

Input: Look at this compound and give its reported pIC50. "COc1cccc(-c2cccc(Oc3cccc(NS(=O)(=O)C4CC4)c3)n2)c1F"
Output: < 4.52

Input: Look at this compound and give its reported pIC50. "Oc1cccc(-c2cccc(Oc3ccc4cn[nH]c4c3)n2)c1F"
Output: ≥ 5.30

Input: Look at this compound and give its reported pIC50. "Oc1cc(Oc2cccc(-c3cc4ccccc4s3)n2)ccc1F"
Output: 4.52 to 5.00

Input: Look at this compound and give its reported pIC50. "Oc1cc(Oc2cccc(-c3cccc(C(F)(F)F)c3)n2)ccc1F"
Output: 5.00 to 5.30
